Test system: OVCAR-4 ovarian
EXPERIMENT_SUMMARY: NCI tumour cell line growth inhibition, 48 h
ATTRIBUTE_MEASURED: TGI

COMPOUND | READOUT_VALUE
CCOC(=O)CNc1c(OCc2ccccc2)c(=O)c1=O | > 100 µM
CN1CCN(CCCOc2ccc3nc(Nc4ccc(Cl)c(C(F)(F)F)c4)ccc3c2)CC1 | 26.4 µM
N#C/C(=C1C=C(Br)/C(=N\O)C=C\1Cl)c1cccc2ccccc12 | 7.6 µM
COC1=CC(=O)c2nc(-c3cccc(C)n3)[nH]c2C1=O | 50.3 µM
Cc1ccn2c(c1)nc1nc3ccccc3nc12 | > 100 µM
NCC1Nc2ccccc2[C@@H](O)C1O (stereo partly specified) | > 100 µM
Cc1cc(C(=O)Nc2ncc(Cc3cccc(C(F)(F)F)c3)s2)c2ccccc2n1 | > 100 µM
CON(C)C(=O)CNC(=O)OCC1c2ccccc2-c2ccccc21 | > 100 µM
NS(=O)(=O)c1ccc(NC2(C(=O)O)CCCC2)cc1 | > 100 µM
NC(Cc1ccccc1)C(=O)N[C@H]1c2ccsc2/C(=N/O)[C@H]1O (stereo partly specified) | > 100 µM
O=C(NI1OC(=O)c2ccccc21)c1ccc(Cl)cc1 | > 100 µM

* * *

System: OVCAR-3 ovarian
EXPERIMENT_SUMMARY: NCI tumour cell line growth inhibition, 48 h; in the data active = GI50 below about 0.43 µM; inactive = the rest
Possible outcomes: active, inactive

STRUCTURE_STRING | CLASS_NAME
C=C1C(=O)O[C@H]2[C@H]1CC/C(COC(=O)C(=O)c1cn(Cc3ccccc3)c3ccccc13)=C\CC[C@@]1(C)O[C@@H]21 | inactive
Cc1cc(S(=O)(=O)Nc2nnc(-c3ccccc3)c(-c3ccccc3)n2)c(SCC(N)=O)cc1Cl | inactive
COc1nc2ccccc2cc1-c1nc2c(cnn2-c2ccc(Br)cc2)c(=O)[nH]1 | active
COC(=O)[C@H](C)NC(=O)NC(=O)NC(=O)CI | inactive
COC1=CC(=O)c2nc(-c3cccc(C)n3)[nH]c2C1=O | inactive
Clc1ccc(C2=Nn3c(COc4ccccc4Cl)nnc3SC2)c(Cl)c1 | inactive
Cc1cc(C(=O)Nc2ncc(Cc3cccc(C(F)(F)F)c3)s2)c2ccccc2n1 | inactive
CN(C)C(=O)c1cc2cnc(Nc3ccc(-c4csc5c(=S)cc(N6CCOCC6)oc45)cc3)nc2n1C1CCCC1 | inactive

* * *

Test system: MDA-N
EXPERIMENT_SUMMARY: NCI tumour cell line growth inhibition, 48 h

COMPOUND | RESULT_UNITS | COMPARISON_OPERATOR | TGI
CON(C)C(=O)CNC(=O)OCC1c2ccccc2-c2ccccc21 | µM | > | 100
COC1=C(C)C(=O)c2c(c(COC(N)=O)c3n2CC2C3N2C)C1=O (stereo not given) | µM | = | 0.136
C[C@]12CCC(=O)O[C@H]1CCCCO2 | µM | > | 100
C(=Nc1ccc(-c2nc3ccccc3[nH]2)cc1)c1cccs1 | µM | > | 100
OC[C@H]1CCCC1O (stereo not given in full) | µM | > | 100
O=c1cc(-c2ccc(F)cc2)[nH]c2ncc(Cl)cc12 | µM | = | 7.91
C=C1C(=O)O[C@@H]2/C=C(\C)CC/C=C(/COC(C)=O)C[C@@H](OC(C)=O)[C@@H]12 | µM | = | 20.5
OCC(O)COCn1nncc1Cn1ncc2c(SCc3ccccc3)ncnc21 (stereo not given) | µM | > | 100
CCOCc1nc2c(OC)cc(-c3nc4ccc(N5CCN(C)CC5)cc4[nH]3)c(OC)c2[nH]1 | µM | = | 35.9
O=C(NCCCNCCCNC(=O)c1cc(-c2ccccc2)nc2ccccc12)c1cc(-c2ccccc2)nc2ccccc12 | µM | = | 3.13
Cc1ccc([N+](=O)[O-])cc1S(=O)(=O)Nc1ccc(C2=NNC(c3ccccc3)C2)cc1 (stereo not given) | µM | = | 92.7
COc1cc(C(=O)N(Cc2cccnc2)C(=S)N(Cc2cccnc2)C(=O)c2cc(OC)c(OC)c(OC)c2)cc(OC)c1OC | µM | > | 100
Cc1ccc(-c2c(C#N)c(-c3ccc(Cl)cc3)c(C#N)c(=O)n2NS(=O)(=O)c2ccc(C)cc2)cc1 | µM | > | 100
COc1cc(Cn2c3c(c4cc(O)ccc42)Cc2ccccc2C3=O)cc(OC)c1 | µM | > | 100
CC(=O)/C(C)=N/NC(=O)c1ccccc1O | µM | > | 100
Cn1cc(NC(=O)c2cc(NC(=O)CN=C(N)N)cn2C)cc1C(=O)NCCC(=N)N | µM | > | 100
CCOC(=O)C(=Cc1[nH]c2ccccc2c1-c1c[nH]c2ccccc12)C(=O)OCC | µM | = | 26.5
O=C(N/N=C\c1cccc2c([N+](=O)[O-])cccc12)Nc1ccccc1 | µM | = | 32.8
Oc1ccc(-c2nc(-c3cccnc3)c(-c3ccc(Cl)cc3)[nH]2)cc1 | µM | = | 26.3
Cc1ccc(SCC(CF)OC(C)n2cnc3c(=O)[nH]c(N)nc32)cc1 (stereo not given) | µM | > | 100
CC(C)=CCC/C(C)=C/C=C/C(C)=C/C=C/C(C)=C/C=C/C=C(C)/C=C/C=C(C)/C=C/[C@H]1C(C(C)(C)O)CC[C@]1(C)O (stereo not given in full) | µM | = | 81.6
O=C1CSC(c2cccc(Oc3ccccc3)c2)N1c1ccc(Cl)cc1 (stereo not given) | µM | = | 63.6
CCOC(=O)CNc1c(OCc2ccccc2)c(=O)c1=O | µM | > | 100
CCOc1cn(C2CC(O)C(CO)O2)c(=O)[nH]c1=O (stereo not given) | µM | > | 100
CC12C(=O)CC(CC1=O)C2(C)C | µM | > | 100
CCOC(=O)/C=C(/C(=O)OCC)n1ccc(=O)n(Cc2cn(COCCOC(C)=O)nn2)c1=O | µM | > | 100
Oc1c(CN2CCOCC2)ccc2cccnc12 | µM | > | 10
CCN(CC)CCNc1nc2ccc([N+](=O)[O-])cc2[n+]([O-])n1 | µM | = | 29.5
CCOC(=O)c1cc(C(O)P2(=O)N(CC(C)(C)C)[C@@H]3CCCC[C@H]3N2CC(C)(C)C)cn1C(=O)OC(C)(C)C (stereo not given in full) | µM | = | 28
COC[C@@H](C[C@H]1O[C@@](O)([C@H](O)[C@@H]2C[C@H](OC)[C@@H](O)CC/C=C(C)/C=C/[C@@H](O[C@@H]3O[C@@H](C)[C@H](OC)[C@@H](O)[C@@H]3O)[C@H](C)/C=C(C)/C=C(C)/C=C(\C)C(=O)O2)[C@H](C)[C@@H](O)[C@H]1C)O[C@H]1C[C@](C)(O)[C@@H](O[C@H]2C[C@@H](OC)[C@H](O)[C@@H](C)O2)C(C)O1 (stereo not given in full) | µM | > | 100
COc1cc(CNCc2cc(OC)c(OC)c(OC)c2)cc(OC)c1OC | µM | > | 10
CC(=O)OCC12C(=O)C[C@@H](C)C3(CC(c4ccoc4)OC3=O)C1CCC(OC(C)=O)C21CO1 (stereo not given in full) | µM | > | 100
COc1ccc(C2OC[C@H]3O[C@@H](OCc4ccccc4)[C@H](O)[C@@H](O)[C@@H]3O2)cc1 (stereo not given in full) | µM | > | 100
COc1ccc(C(=C(Cl)c2ccccc2)c2ccc(OC)cc2)cc1 | µM | > | 100
CN1c2ccc(Cl)cc2C(=O)NC1c1ccc([N+](=O)[O-])s1 (stereo not given) | µM | = | 31.7
